tested on: HL-60; assay: NCI tumour cell line growth inhibition, 48 h
Active and inactive are the calls of the source. Rule as the data show it: active = GI50 up to about 1.1 µM and inactive = higher.
Return exactly one item of YES (active), NO (inactive)

So what was the verdict on COc1ccc(OC)c(-c2cc(=O)c3c(OC)c(OC)c(OC)c(OC)c3o2)c1 in this test?
NO

So what was the verdict on CC(C)(C)c1ccc2c(c1)OP1(Oc3cccc4cccnc34)(O2)Oc2ccc(C(C)(C)C)cc2O1 in this test?
NO

So what was the verdict on O=S1(=O)c2ccccc2C(Nc2ccccc2)N1c1ccccc1 (configuration not stated) in this test?
NO

So what was the verdict on O=C1Nc2ccccc2Nc2nc3cccccc-3c21 in this test?
NO

So what was the verdict on CCCCN(C)CC(C(C)=O)C(c1ccccc1)c1c(O)c2ccccc2oc1=O (configuration not stated) in this test?
NO

So what was the verdict on O=C(c1ccccc1)N1C2CCC1C(C(F)(F)F)=C2C(F)(F)F in this test?
NO

So what was the verdict on O=c1[nH]nc(Cc2ccccc2)n1/N=C/c1c[nH]c2ccccc12 in this test?
NO

So what was the verdict on CCCCCCCCSC(=O)NCCCC in this test?
NO

So what was the verdict on C[C@]12CC[C@H](O)CC1=CC[C@@H]1C2CC[C@]2(C)c3n[nH]nc3CC12 (some centres not stated) in this test?
NO

So what was the verdict on COc1cc(C(=O)N2CCc3c([nH]c4c([N+](=O)[O-])c(OC)ccc34)C2C)cc(OC)c1OC (configuration not stated) in this test?
NO

So what was the verdict on COc1cc2c(cc1OCCCC(=O)Nc1cc(C(=O)Nc3cc(C(=O)Nc4cc(C(=O)NCCCN(C)C)n(C)n4)n(C)n3)n(C)n1)N=CC1CCCN1C2=O (configuration not stated) in this test?
NO

So what was the verdict on CCOCc1cc(=O)c2cc3c(cc2o1)OC(C)(C)CC3 in this test?
NO

So what was the verdict on Cc1cc(C(=O)CBr)c(CN2C(=O)c3ccccc3C2=O)c(=O)n1C in this test?
NO

So what was the verdict on Cc1cnc2ccc(C)c([N+](=O)[O-])c2c1NCCCN(C)C in this test?
NO

So what was the verdict on N/N=C(\N)Nc1cccc2ccccc12 in this test?
NO

So what was the verdict on C=C1C(O)C2(O)OCC34C(CC5C(C)=CC(=O)C(O)C5(C)C23)OC(=O)C(OC(=O)C/C=C/CCCCCCCC)C14 (configuration not stated) in this test?
YES

So what was the verdict on C=CCC1(O)c2cccc(O)c2C(=O)c2c(O)cccc21 in this test?
NO

So what was the verdict on O=C(NCCc1ccccc1)c1cc(/C=C/c2cc(O)ccc2O)ccc1O in this test?
NO

So what was the verdict on COc1cc(C2=NN(C)C(c3ccc([N+](=O)[O-])o3)C2)cc(OC)c1OC (configuration not stated) in this test?
NO

So what was the verdict on CC1(C)C(=O)/C(=C/c2ccccc2)C(C)(C)C1(C)C in this test?
NO

So what was the verdict on CC1=C(C(=O)Nc2ccc(C)cc2)C(c2cccc([N+](=O)[O-])c2)C(C(=O)Nc2ccc(C)cc2)=C(C)N1 in this test?
NO

So what was the verdict on NNC1=N/C(=C\c2ccco2)C(=O)N1 in this test?
NO
